Molecular target: rat α7 nAChRs (Rattus norvegicus)
Construct: expressed in transfected cells; host or cells: Xenopus laevis oocytes injected with subunit cRNA
Assay: Voltage-clamp recording in Xenopus oocytes expressing rat α7 nAChRs
Type: cell-based
Conditions: read-out: IC50 values, α7
Method: For recombinant nAChR studies, mature (>9 cm) female Xenopus laevis African frogs (Nasco, Ft. Atkinson, Wis.) were used as a source of oocytes. […] Experiments were conducted using OpusXpress 6000A (Molecular Devices, Union City Calif.). […] Means and standard errors (SEM) were calculated from the normalized responses of at least four oocytes for each experimental concentration. […]
RECORDED_ENDPOINT: IC50 (µM)
Just the number in µM, nothing appended.

Which measured IC50 value corresponds to `Cc1cccc[n+]1CCCC#Cc1cc(C#CCCC[n+]2ccccc2C)cc(C#CCCC[n+]2ccccc2C)c1` ?
6.3

For the next question, use this molecule.
Which measured IC50 value corresponds to `C(#Cc1cc(C#CCCC[n+]2cccc3ccccc32)cc(C#CCCC[n+]2cccc3ccccc32)c1)CCC[n+]1cccc2ccccc21` ?
0.13

---

Biological target: rat α7 nAChRs (Rattus norvegicus, UniProt Q05941)
Construct: expressed in transfected cells; host or cells: Xenopus laevis oocytes injected with subunit cRNA
Sequence (Q05941 23-502): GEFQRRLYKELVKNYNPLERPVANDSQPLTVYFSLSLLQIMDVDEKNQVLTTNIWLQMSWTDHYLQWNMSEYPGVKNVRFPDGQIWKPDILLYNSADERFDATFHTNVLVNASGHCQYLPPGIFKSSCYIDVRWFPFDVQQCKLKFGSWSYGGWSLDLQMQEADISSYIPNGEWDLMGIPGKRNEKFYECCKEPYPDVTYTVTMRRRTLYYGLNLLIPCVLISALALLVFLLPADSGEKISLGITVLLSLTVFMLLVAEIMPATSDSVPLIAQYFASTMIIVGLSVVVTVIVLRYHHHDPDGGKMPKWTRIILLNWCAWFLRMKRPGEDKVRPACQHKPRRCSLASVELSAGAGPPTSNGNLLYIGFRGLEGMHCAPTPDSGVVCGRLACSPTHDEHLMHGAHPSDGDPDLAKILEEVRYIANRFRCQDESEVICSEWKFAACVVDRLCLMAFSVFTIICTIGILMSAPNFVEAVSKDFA
Assay: Voltage-clamp recording in Xenopus oocytes expressing rat α7 nAChRs
Type: cell-based
Settings: simple co-application with 60 μM ACh, net charge; read-out: IC50 values, α7
RECORDED_ENDPOINT: IC50 (nM)
Just the number in nM, nothing appended.

Which measured IC50 value corresponds to `c1ccc(Cc2ccc[n+](CCCCCc3cc(CCCCC[n+]4cccc(Cc5ccccc5)c4)c(CCCCC[n+]4cccc(Cc5ccccc5)c4)cc3CCCCC[n+]3cccc(Cc4ccccc4)c3)c2)cc1` ?
1000
